Item-by-item account of competition ratio (Antibody B to Antibody A)
Biological target: T1, recombinant human DLL3 (human, UniProt Q9NYJ7 27-492)
T1 sequence: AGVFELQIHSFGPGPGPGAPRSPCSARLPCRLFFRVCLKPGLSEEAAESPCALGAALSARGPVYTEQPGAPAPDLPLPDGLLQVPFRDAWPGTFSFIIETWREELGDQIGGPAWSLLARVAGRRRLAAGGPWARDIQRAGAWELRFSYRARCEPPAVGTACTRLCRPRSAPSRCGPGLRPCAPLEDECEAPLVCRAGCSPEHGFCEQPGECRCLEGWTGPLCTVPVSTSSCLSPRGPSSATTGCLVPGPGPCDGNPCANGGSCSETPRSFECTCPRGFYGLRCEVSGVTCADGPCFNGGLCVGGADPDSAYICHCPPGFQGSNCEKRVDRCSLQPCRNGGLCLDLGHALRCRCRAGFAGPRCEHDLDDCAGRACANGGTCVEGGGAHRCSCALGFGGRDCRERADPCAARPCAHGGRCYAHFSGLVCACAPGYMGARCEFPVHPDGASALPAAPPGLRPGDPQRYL
Experiment: Octet binning on SA sensor; Antibody A (biotinylated, loaded first): D30316AE02-SG1; then 20 nM human DLL3, then 80 nM Antibody B
The response must contain the number and no unit.

Below, 3 binders whose answers are already recorded.
# BINDER, OBSERVED
data = [
    ("DL301-SG1 (antibody, human IgG1, kappa, V domains shown, Variable regions of a previously reported anti-DLL3 antibody on SG1/SK1; Also used biotin-labelled as a first antibody) VH: QVQLQQSGADLVRPGTSVKVSCKASGYAFTNYLIEWIKQRPGQGLEWIGVMNPGSGGTHYSEKFRGKATLTADKSSSTAYMQLISLTSDDSAVYFCARSDYDYVTYAMDYWGQGTSVTVSS VL: DIKMTQSPSSMYASLGERVTITCKASQDINSYLIWFQQKPGKSPKTLIYRTNRLVDGVPSRFSGSGSGQDYSLTISSLEYGDMGIYYCLQYDEFPFTFGSGTKLEIKR", 1.3),
    ("DLL3-14-SG1 (antibody, human IgG1, kappa, V domains shown, Variable regions of a previously reported anti-DLL3 antibody on SG1/SK1; Used as a second antibody only) VH: QVQLVQSGAEVKKPGASVKVSCKASGYTFTNYYMHWVRQAPGLGLEWMGIINPSDGSTSYAQKFQGRVTMTRDTSTNTVYMDLSSLRSEDTAVYYCARGGNSAFYSYYDMDVWGQGTTVTVSS VL: DVVMTQTPLSLPVTLGQPASISCRSSQSLVYRDGNTYLSWFQQRPGQSPRRLIYKVSNWQSGVPDRFSGGGSGTDFTLKISRVEAEDVGVYYCMQGTHWPPTFGQGTKVEIKR", 1.4),
    ("DLL3-6-SG1 (antibody, human IgG1, kappa, V domains shown, Variable regions of a previously reported anti-DLL3 antibody on SG1/SK1; Used as a second antibody only) VH: QVQLQESGPGLVKPSETLSLTCTVSGASISSFYWSWIRQPPGKGLEWIGYIYYSGTTNYNPSLKSRVTISVDTSKNQFSLKLSSVTAADTAVYYCARIAVAGFFFDYWGQGTLVTVSS VL: EIVLTQSPGTLSLSPGERATLSCRASQSVNKNYLAWYQQKPGQAPRLLIYGASSRATGIPDRFSGSGSGTDFTLTISRLEPEDFAVYYCQQYDRSPLTFGGGTKVEIKR", 1.3),
]

Q: What measured competition ratio (Antibody B to Antibody A) goes with DL312-SG1 (antibody, human IgG1, kappa, V domains shown, Variable regions of a previously reported anti-DLL3 antibody on SG1/SK1; Also used biotin-labelled as a first antibody) VH: EVKLVESGGGLVQPGGSLSLSCAASGFTFTDYYMNWVRQPPGKALEWLALIRNKANGYTTEYNASVKGRFTISRDNSQNILYLQMNALRAEDSATYYCARDSDGYYEYYFDYWGQGTTLTVSS VL: DIQMTQSPSSLSASLGERVSLTCRASQEISDYLSWLQQKPDGTIKRLIFAASTLDSGVPKRFSGSRSGSDFSLSISSLESEDFADYYCLQYASYPYTFGSGTKLEIKR ?
Ans: 1.4

Q: Also, DL306-SG1 (antibody, human IgG1, kappa, V domains shown, Variable regions of a previously reported anti-DLL3 antibody on SG1/SK1; Also used biotin-labelled as a first antibody) VH: EVQLQQSGPELVKPGASVKMSCRASGYTFTDYYMKWVKQSHGKSLEWIGDINPNNGDTFYNQKFKGKATLTIDKSSSTAYMQLNSLTSDDSAVYYCARDGNYAYFDYWGQGTTLTVSS VL: DIVLTQSPASLAVSLGQRATISCRASKSVSTSGYSYMHWYQQKPGQPPKLLIFLASNLESGVPARFSGSGSGTDFTLNIHPVEEEDAATYYCQHSRHLPWTFGGGTKLEIKR please.
Ans: 1.5
